B1: tRNA (parent)
chain: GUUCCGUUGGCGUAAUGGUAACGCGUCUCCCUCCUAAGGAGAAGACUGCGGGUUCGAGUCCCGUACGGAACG

Variants of: B1
Experiment: yeast fitness, log relative to wild type (ln ratio); higher = fitter; tRNA-Arg(CCU), competitive growth, 37 C, 1 M NaCl
Threshold rule: yeast fitness (ln) greater than or equal to -0.2 is criterion met; below that, criterion not met.

# mutation id, class assignment
rows = [
    ("G1A U2C G6A C46U", "criterion met"),
    ("U2C C46U A69G C71U", "criterion met"),
    ("U2C G6U C27U C46U C66U A70G", "criterion met"),
    ("U2C C27U C46U A69G", "criterion not met"),
    ("G1A G6U C66A A69G A70U", "criterion met"),
    ("U2C C27U", "criterion met"),
    ("G1A U2C G6U C27U A43C C66A A70G", "criterion not met"),
    ("G1A G6U C27U A43C C46U C71U", "criterion not met"),
    ("G1A U2C G6U C66A A69G A70U", "criterion met"),
    ("U2C G6A C66U C71U", "criterion not met"),
    ("G1A U2C G6A C46U C66A A69G A70G C71U", "criterion met"),
    ("U2C G6A C27U A43C C46U C66U A69G A70U", "criterion met"),
    ("U2G G6A C66U A70U C71U", "criterion met"),
    ("G1A G6U C46U C66U A70U C71U", "criterion not met"),
    ("C27U", "criterion met"),
    ("G1A G6A C27U A43C C46U C66U A69G A70G C71U", "criterion not met"),
    ("G1A U2G G6A A43C C46U C71U", "criterion not met"),
    ("U2G G6A C46U C66A A69G A70U", "criterion met"),
    ("U2C G6U C27U A69G A70U", "criterion met"),
    ("G1A U2G G6U C27U C46U A70U C71U", "criterion not met"),
    ("G1A C46U A69G A70G", "criterion met"),
    ("U2C G6A C46U C66A A69G A70G C71U", "criterion not met"),
    ("U2G G6A A43C C46U C66A A69G A70G C71U", "criterion not met"),
    ("G1A G6U C27U A43C C66U A69G C71U", "criterion not met"),
    ("G1A U2G C46U A69G A70G", "criterion met"),
    ("G1A G6A C27U A43C A70G", "criterion not met"),
    ("U2C G6U C27U C46U C66A A69G A70G C71U", "criterion met"),
    ("U2C G6U A43C C66U A70U", "criterion met"),
    ("U2C G6U C46U C66U C71U", "criterion met"),
    ("U2C G6A A70G C71U", "criterion met"),
    ("U2C G6A A43C C46U A69G A70U C71U", "criterion not met"),
    ("G6A C27U C46U C66A C71U", "criterion met"),
    ("G1A U2G G6A C46U A70G", "criterion met"),
    ("G1A U2C G6A A43C C46U C66U A69G A70G C71U", "criterion met"),
    ("G1A U2C A69G A70U C71U", "criterion not met"),
    ("G6U C66A A69G C71U", "criterion met"),
    ("G1A U2G G6A A43C C46U C66A A69G A70U C71U", "criterion not met"),
    ("G1A U2C G6U C66A A69G A70G C71U", "criterion met"),
    ("G1A G6A C66U A69G", "criterion not met"),
    ("G1A U2C C27U C46U A70U", "criterion met"),
    ("G1A U2G C66A A70G", "criterion met"),
    ("U2C C46U A70U", "criterion met"),
    ("G1A U2C A43C A69G A70U C71U", "criterion not met"),
    ("U2C C27U A43C C46U A69G A70G", "criterion met"),
    ("U2C C27U A70U", "criterion met"),
    ("G1A U2G C66U A70U C71U", "criterion not met"),
    ("U2C G6A A43C C66U C71U", "criterion met"),
    ("G1A U2C C66U A70U", "criterion met"),
    ("C27U A43C C46U C66A A69G A70G C71U", "criterion met"),
    ("U2C G6U C27U C46U A69G C71U", "criterion not met"),
    ("G1A G6U C27U C46U A69G A70U C71U", "criterion not met"),
    ("C27U C46U A70U", "criterion met"),
    ("G6U A43C C46U A69G A70G", "criterion not met"),
    ("C27U A43C C66U A69G C71U", "criterion not met"),
    ("C27U C46U C66U A70G C71U", "criterion met"),
    ("C27U C66A C71U", "criterion met"),
    ("G1A U2G C27U C46U C66A A69G A70U C71U", "criterion not met"),
    ("U2G G6U A43C C46U C66U A69G A70U C71U", "criterion not met"),
    ("G1A U2G C66A A70G C71U", "criterion met"),
    ("G1A U2C C46U C66U A69G A70G", "criterion met"),
    ("U2C C27U C46U A69G A70U C71U", "criterion not met"),
    ("G1A U2G C27U A43C C46U A69G A70U C71U", "criterion not met"),
    ("G6A C27U A43C C66U A69G A70U", "criterion not met"),
    ("G6U A43C C46U A70U", "criterion met"),
    ("G6A A43C C66A A70U C71U", "criterion not met"),
    ("G1A U2G C27U A43C C46U C66U A69G C71U", "criterion not met"),
    ("G6U C27U C66U A69G A70G", "criterion not met"),
    ("U2G G6U A43C C66A A69G A70U", "criterion met"),
    ("G6A C66U C71U", "criterion met"),
    ("A43C C46U C66U A70U C71U", "criterion not met"),
    ("U2C C46U C66U A70G", "criterion met"),
    ("G1A U2C G6U C46U C66A C71U", "criterion met"),
    ("U2G G6U C27U A43C C66U A69G C71U", "criterion not met"),
    ("U2G G6A C66U A69G A70G C71U", "criterion met"),
    ("G1A G6U C27U A43C C66A A69G A70U C71U", "criterion not met"),
]

The reported measurements were obtained from the RNAGym collection of RNA variant scans (doi:10.1038/s41586-018-0170-7).
